Ref: ChEMBL document CHEMBL1152651

Documented inhibition of growth at 100 µg/mL across a set of molecules
tested on: Leishmania infantum; assay: Antileishmanial activity against Leishmania infantum MCAN/ES/92/BCN 83 promastigotes at 100 ug/ml after 48 hrs by resazurin method; assay type: functional; conditions: MCAN/ES/92/BCN 83, 48 h, read-out: GI
Phrase the answer as number then unit, nothing more needed.

Task item: Query (molecule): `COc1ccc(S(=O)(=O)Nc2ncccn2)cc1` ; field requested: inhibition of growth at 100 µg/mL
Reply: 29.6%

Task item: Query (molecule): `O=S(=O)(Nc1cnccn1)c1ccc(Cl)cc1` ; field requested: inhibition of growth at 100 µg/mL
Reply: 25.3%

---
Task item: Query (molecule): `Cc1cc(NS(=O)(=O)c2ccc([N+](=O)[O-])cc2)no1` ; field requested: inhibition of growth at 100 µg/mL
Reply: 85.6%

----------
Documented pIC50 across a set of compounds
system: Leishmania infantum; assay: Antileishmanial activity against Leishmania infantum MCAN/ES/92/BCN 83 promastigotes after 48 hrs by resazurin method; format: functional, organism-based; details: Leishmania infantum, MCAN/ES/92/BCN 83, 48 h; read-out: IC50
pIC50: −log10 of the molar value.

Check out these entries, answers already filled in.
Task item: Record lookup: for Leishmania infantum, what pIC50 belongs to `Cc1cc(NS(=O)(=O)c2ccc(Cl)cc2)no1` ?
Reply: < 3.59

Task item: Record lookup: for Leishmania infantum, what pIC50 belongs to `O=S(=O)(Nc1nccs1)c1ccc(Cl)cc1` ?
Reply: < 3.59

Task item: Record lookup: for Leishmania infantum, what pIC50 belongs to `O=[N+]([O-])c1ccccc1S(=O)(=O)Nc1ncccn1` ?
Reply: < 3.59

---
Task item: Record lookup: for Leishmania infantum, what pIC50 belongs to `Cc1cc(NS(=O)(=O)c2ccc([N+](=O)[O-])cc2)n[nH]1` ?
Reply: 3.79

Task item: Record lookup: for Leishmania infantum, what pIC50 belongs to `O=[N+]([O-])c1ccc(S(=O)(=O)Nc2ccncc2)cc1` ?
Reply: < 3.59

----------
test system: Leishmania infantum; assay: Antileishmanial activity against Leishmania infantum MCAN/ES/92/BCN 83 promastigotes at 100 ug/ml after 48 hrs by resazurin method; assay type: functional; settings: MCAN/ES/92/BCN 83, 48 h, read-out: GI
Documented inhibition of growth at 100 µg/mL across a set of compounds
Write it as a number; the unit % goes unstated.

Task item: Record lookup: for Leishmania infantum, what inhibition of growth at 100 µg/mL belongs to `O=S(=O)(Nc1ncccn1)c1ccccc1` ?
Reply: 20.3

Task item: Record lookup: for Leishmania infantum, what inhibition of growth at 100 µg/mL belongs to `CCCNC(=O)CNc1ccc([N+](=O)[O-])cc1` ?
Reply: 85

Attention now shifts to the item below.
Task item: Record lookup: for Leishmania infantum, what inhibition of growth at 100 µg/mL belongs to `Cc1cc(C)nc(NS(=O)(=O)c2ccc(Cl)cc2)n1` ?
Reply: 71.5

----------
test system: Leishmania infantum; test: Antileishmanial activity against Leishmania infantum MCAN/ES/92/BCN 83 promastigotes after 48 hrs by resazurin method; format: functional, organism-based; conditions: Leishmania infantum, MCAN/ES/92/BCN 83, 48 h; read-out: IC50
MEASURED ENDPOINT: IC50

Check out these entries, answers already filled in.
Task item: Query (molecule): `O=[N+]([O-])c1ccc(S(=O)(=O)Nc2ccccn2)cc1` ; field requested: IC50
Reply: > 256 µM

Task item: Query (molecule): `O=[N+]([O-])c1ccc(S(=O)(=O)Nc2ccc3[nH]ncc3c2)cc1` ; field requested: IC50
Reply: 14.5 µM

Task item: Query (molecule): `O=[N+]([O-])c1ccc(S(=O)(=O)Nc2ccc3c(c2)CCC3)cc1` ; field requested: IC50
Reply: < 1 µM

Task item: Query (molecule): `O=S(=O)(Nc1cnccn1)c1ccc(Cl)cc1` ; field requested: IC50
Reply: > 256 µM

Task item: Query (molecule): `O=[N+]([O-])c1ccc(S(=O)(=O)Nc2nccs2)cc1` ; field requested: IC50
Reply: > 256 µM

---
Task item: Query (molecule): `O=S(=O)(Nc1ncccn1)c1ccccc1` ; field requested: IC50
Reply: > 256 µM

Task item: Query (molecule): `Cc1cc(NS(=O)(=O)c2ccccc2)no1` ; field requested: IC50
Reply: > 256 µM

Task item: Query (molecule): `Cc1cnc(NS(=O)(=O)c2ccc(Cl)cc2)s1` ; field requested: IC50
Reply: > 256 µM

Task item: Query (molecule): `Cc1cc(C)nc(NS(=O)(=O)c2ccc([N+](=O)[O-])cc2)n1` ; field requested: IC50
Reply: > 256 µM

Task item: Query (molecule): `Cc1csc(NS(=O)(=O)c2ccc([N+](=O)[O-])cc2)n1` ; field requested: IC50
Reply: > 256 µM

Task item: Query (molecule): `O=S(=O)(Nc1ccc2c(c1)CCC2)c1ccc(Cl)cc1` ; field requested: IC50
Reply: > 256 µM

Task item: Query (molecule): `COc1ccc(S(=O)(=O)Nc2ncccn2)cc1` ; field requested: IC50
Reply: > 256 µM

Task item: Query (molecule): `O=S(=O)(Nc1ccc2c(c1)CCC2)c1ccccc1` ; field requested: IC50
Reply: > 256 µM

Task item: Query (molecule): `O=S(=O)(Nc1cnccn1)c1ccccc1` ; field requested: IC50
Reply: > 256 µM

----------
tested on: Leishmania infantum; assay: Antileishmanial activity against Leishmania infantum MCAN/ES/92/BCN 83 promastigotes at 100 ug/ml after 48 hrs by resazurin method; assay type: functional; details: MCAN/ES/92/BCN 83, 48 h, read-out: GI
Binary classification by inhibition of growth at 100 µg/mL, with 60% as an inclusive lower bound for Met; all other cases are Not met.

Task item: Hello, I need to know if `Cc1cc(NS(=O)(=O)c2ccc(Cl)cc2)no1` has measured inhibition of growth at 100 µg/mL not below 60%. Thanks!
Reply: Not met

Task item: Hello, I need to know if `Cc1cnc(NS(=O)(=O)c2ccc([N+](=O)[O-])cc2)s1` has measured inhibition of growth at 100 µg/mL not below 60%. Thanks!
Reply: Not met

Task item: Hello, I need to know if `O=[N+]([O-])c1ccc(S(=O)(=O)Nc2ccccn2)cc1` has measured inhibition of growth at 100 µg/mL not below 60%. Thanks!
Reply: Not met

Task item: Hello, I need to know if `O=[N+]([O-])c1ccc(S(=O)(=O)Nc2ccncc2)cc1` has measured inhibition of growth at 100 µg/mL not below 60%. Thanks!
Reply: Not met

---
Task item: Hello, I need to know if `Cc1cnc(NS(=O)(=O)c2ccccc2)s1` has measured inhibition of growth at 100 µg/mL not below 60%. Thanks!
Reply: Met

Task item: Hello, I need to know if `Cc1cc(NS(=O)(=O)c2ccccc2)no1` has measured inhibition of growth at 100 µg/mL not below 60%. Thanks!
Reply: Not met

----------
Documented IC50 across a set of compounds
system: Leishmania infantum; experiment: Antileishmanial activity against Leishmania infantum MCAN/ES/92/BCN 83 promastigotes after 48 hrs by resazurin method; assay type: functional, organism-based; conditions: Leishmania infantum, MCAN/ES/92/BCN 83, 48 h; read-out: IC50

Task item: Query (compound): `Cc1cc(NS(=O)(=O)c2ccc([N+](=O)[O-])cc2)no1` ; field requested: IC50
Reply: 126 µM

Task item: Query (compound): `Cc1cnc(NS(=O)(=O)c2ccc([N+](=O)[O-])cc2)s1` ; field requested: IC50
Reply: > 256 µM

Task item: Query (compound): `Cc1cnc(NS(=O)(=O)c2ccccc2)s1` ; field requested: IC50
Reply: > 256 µM

---
Task item: Query (compound): `CCCNC(=O)CNc1ccc([N+](=O)[O-])cc1` ; field requested: IC50
Reply: 156 µM

Task item: Query (compound): `O=[N+]([O-])c1ccc(S(=O)(=O)Nc2ncccn2)cc1` ; field requested: IC50
Reply: 100 µM

Task item: Query (compound): `O=[N+]([O-])c1ccc(S(=O)(=O)Nc2cnccn2)cc1` ; field requested: IC50
Reply: 66.2 µM

Task item: Query (compound): `O=[N+]([O-])c1ccc(S(=O)(=O)Nc2cccnc2)cc1` ; field requested: IC50
Reply: > 256 µM

Task item: Query (compound): `Cc1cc(C)nc(NS(=O)(=O)c2ccc(Cl)cc2)n1` ; field requested: IC50
Reply: 224 µM

----------
Documented inhibition of growth at 100 µg/mL across a set of compounds
test system: Leishmania infantum; experiment: Antileishmanial activity against Leishmania infantum MCAN/ES/92/BCN 83 promastigotes at 100 ug/ml after 48 hrs by resazurin method; type: functional; settings: MCAN/ES/92/BCN 83, 48 h, read-out: GI
Write it as a number; the unit % goes unstated.

Check out these entries, answers already filled in.
Task item: Query (compound): `O=S(=O)(Nc1ccc2c(c1)CCC2)c1ccccc1` ; field requested: inhibition of growth at 100 µg/mL
Reply: 45.3

Task item: Query (compound): `O=[N+]([O-])c1ccc(S(=O)(=O)Nc2ncccn2)cc1` ; field requested: inhibition of growth at 100 µg/mL
Reply: 92.7

Task item: Query (compound): `O=[N+]([O-])c1ccc(S(=O)(=O)Nc2cnccn2)cc1` ; field requested: inhibition of growth at 100 µg/mL
Reply: 90.8

Task item: Query (compound): `Cc1cc(C)nc(NS(=O)(=O)c2ccc([N+](=O)[O-])cc2)n1` ; field requested: inhibition of growth at 100 µg/mL
Reply: 33.3

---
Task item: Query (compound): `O=[N+]([O-])c1ccc(S(=O)(=O)Nc2ccc3c(c2)CCC3)cc1` ; field requested: inhibition of growth at 100 µg/mL
Reply: 91.9

Task item: Query (compound): `Cc1cc(NS(=O)(=O)c2ccc([N+](=O)[O-])cc2)n[nH]1` ; field requested: inhibition of growth at 100 µg/mL
Reply: 71.5
